- test_summary: DRUGMATRIX: Imidazoline I2, Central radioligand binding (ligand: [3H] Idazoxan)
- Type: cell membranes, Rattus norvegicus, Wistar, Cerebral cortex, Membrane
- run_conditions: Not Active = under 50% inhibition at 10 µM
assay_metric: Ki

In the examples that follow, each entry is paired with its recorded Ki.
C=C1CC[C@H](O)C/C1=C/C=C1\CCC[C@]2(C)[C@@H]([C@H](C)CCCC(C)C)CC[C@@H]12 : Not Active
C[C@]12CC[C@@H]3c4ccc(O)cc4CC[C@H]3[C@@H]1CC[C@@H]2O : Not Active
CN(C)c1ccc(C(=C2C=CC(=[N+](C)C)C=C2)c2ccc(N(C)C)cc2)cc1.[Cl-] : Not Active
COc1ccc2cc([C@H](C)C(=O)O)ccc2c1 : Not Active

## Input What measured Ki goes with CCCC(=O)Nc1ccc(OCC(O)CNC(C)C)c(C(C)=O)c1 (configuration not stated) ?
## Output Not Active

## Input What measured Ki goes with CC1(C)O[C@@H]2C[C@H]3[C@@H]4C[C@H](F)C5=CC(=O)C=C[C@]5(C)[C@@]4(F)[C@@H](O)C[C@]3(C)[C@]2(C(=O)CO)O1 [FLUOCINOLONE ACETONIDE] ?
## Output Not Active

## Input What measured Ki goes with CCN[C@@H]1C[C@H](N)[C@@H](O[C@H]2OC(CN)=CC[C@H]2N)[C@H](O)[C@H]1O[C@H]1OC[C@](C)(O)[C@H](NC)[C@H]1O ?
## Output Not Active
